- System name: hT2R54 (Homo sapiens)
- Construct: expressed in transfected cells; it overexpresses a promiscuous G protein
- Sequence (P59534 whole entry): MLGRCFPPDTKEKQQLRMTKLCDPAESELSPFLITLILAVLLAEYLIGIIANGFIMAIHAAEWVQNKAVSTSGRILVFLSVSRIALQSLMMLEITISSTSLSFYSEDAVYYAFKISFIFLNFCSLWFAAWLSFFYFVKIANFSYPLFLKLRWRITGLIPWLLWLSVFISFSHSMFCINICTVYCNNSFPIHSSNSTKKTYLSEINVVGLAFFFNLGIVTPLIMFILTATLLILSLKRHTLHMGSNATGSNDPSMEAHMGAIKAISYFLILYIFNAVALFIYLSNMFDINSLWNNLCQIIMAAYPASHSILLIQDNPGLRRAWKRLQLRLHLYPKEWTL
- Procedure text: Cell-based assay for measuring hT2R54 inhibition (FLIPR calcium, Fluo4AM, acetaminophen as bitter agonist)
- Setup conditions: Table 2; cells stably expressing hT2R54 and a promiscuous G protein; read-out: hT2R54 IC50
- Procedure: Cells stably expressing hT2R54 and a promiscuous G protein were seeded in 384 well plates 24 hours prior to the experiment. […] Baseline was recorded for 10 seconds, then 25 μl of […] was added onto 25 μl of cells and resulting changes in fluorescence were monitored over an additional 3 minutes. […] The ability of a test compound that blocks bitter taste elicited through hT2R54 was measured in this assay, as follows. […]
Experimental readout: IC50 (nM)
The response must be a number in nM with no trailing unit.

Problem: Provide value of IC50 for this record tested with hT2R54 (Homo sapiens): CC(=O)c1cc2c(cc1NC(=O)CN1CCN(C(C)=O)CC1)OCCO2
Solution: 50

From here, focus on the item given below.
Problem: Checklist item: IC50 tested on hT2R54 (Homo sapiens), entry CC(=O)c1cc2c(cc1NC(=O)CN1CCN(C(=O)c3ccc(O)cc3)CC1)OCO2 , value?
Solution: 80

The values you see were collected from patent US12295396B2.
